# Run description: Selectivity index, ratio of IC50 for mouse BALB/3T3 cells to IC50 for human SW707 cells
# Assay type: functional
Value type: Selectivity Index
Respond numerically, and do not add a unit to the figure.

* CC[C@@H](C(=O)[C@@H](C)[C@@H](O)[C@H](C)[C@@H]1O[C@@H]([C@@H](CC)C(=O)O)CC[C@@H]1C)[C@H]1O[C@]2(C=C[C@@H](O)[C@]3(CC[C@@](C)([C@H]4CC[C@](O)(CC)[C@H](C)O4)O3)O2)[C@H](C)C[C@@H]1C | 5.39

Requested field: Selectivity Index. Item: O=c1[nH]cc(F)c(=O)[nH]1
0.16

Requested field: Selectivity Index. Item: O=c1[nH]c(=O)n([C@H]2C[C@H](O)[C@@H](CO)O2)cc1F
1

----------
# System: Staphylococcus epidermidis
# Run description: Antimicrobial activity against methicillin-resistant Staphylococcus epidermidis 461/11 after 18 hrs by two-fold serial microdilution method
# Type: functional
# Condition: 461/11, 18 h
Listing of entries alongside the reported MIC.
Output spec: scalar in µM, unitless text.

Study these solved cases before continuing.
• O=C(O)c1cn(C2CC2)c2cc(N3CCNCC3)c(F)cc2c1=O = 0.76
• O=c1[nH]cc(F)c(=O)[nH]1 = 0.96
• CC[C@@H](C(=O)[C@@H](C)[C@@H](O)[C@H](C)[C@@H]1O[C@@H]([C@@H](CC)C(=O)O)CC[C@@H]1C)[C@H]1O[C@]2(C=C[C@@H](O)[C@]3(CC[C@@](C)([C@H]4CC[C@](O)(CC)[C@H](C)O4)O3)O2)[C@H](C)C[C@@H]1C = 2.66
• CC[C@@H](C(=O)[C@@H](C)[C@@H](O)[C@H](C)[C@@H]1O[C@@H]([C@@H](CC)C(=O)OC[C@H]2O[C@@H](n3cc(F)c(=O)[nH]c3=O)C[C@@H]2O)CC[C@@H]1C)[C@H]1O[C@]2(C=C[C@@H](O)[C@]3(CC[C@@](C)([C@H]4CC[C@](O)(CC)[C@H](C)O4)O3)O2)[C@H](C)C[C@@H]1C = 32.7
• CC[C@@H](C(=O)[C@@H](C)[C@@H](O)[C@H](C)[C@@H]1O[C@@H]([C@@H](CC)C(=O)NCc2cn([C@H]3C[C@H](n4cc(F)c(=O)[nH]c4=O)O[C@@H]3CO)nn2)CC[C@@H]1C)[C@H]1O[C@]2(C=C[C@@H](O)[C@]3(CC[C@@](C)([C@H]4CC[C@](O)(CC)[C@H](C)O4)O3)O2)[C@H](C)C[C@@H]1C = 30.2

Requested field: MIC. Item: [N-]=[N+]=N[C@H]1C[C@H](n2cc(F)c(=O)[nH]c2=O)O[C@@H]1CO
1.85

----------
Listing of entries alongside the reported log10 MIC.
# System: Staphylococcus aureus
# Run description: Antimicrobial activity against Staphylococcus aureus ATCC 29213 after 18 hrs by two-fold serial microdilution method
# Format: functional
# Condition: ATCC 29213, 18 h
Scale: decimal log of MIC, MIC in µM.

• [N-]=[N+]=N[C@H]1C[C@H](n2cc(F)c(=O)[nH]c2=O)O[C@@H]1CO = 0.87
• CC[C@@H](C(=O)[C@@H](C)[C@@H](O)[C@H](C)[C@@H]1O[C@@H]([C@@H](CC)C(=O)OC[C@H]2O[C@@H](n3cc(F)c(=O)[nH]c3=O)C[C@@H]2O)CC[C@@H]1C)[C@H]1O[C@]2(C=C[C@@H](O)[C@]3(CC[C@@](C)([C@H]4CC[C@](O)(CC)[C@H](C)O4)O3)O2)[C@H](C)C[C@@H]1C = 0.61

Requested field: log10 MIC. Item: CC[C@@H](C(=O)[C@@H](C)[C@@H](O)[C@H](C)[C@@H]1O[C@@H]([C@@H](CC)C(=O)NCc2cn([C@H]3C[C@H](n4cc(F)c(=O)[nH]c4=O)O[C@@H]3CO)nn2)CC[C@@H]1C)[C@H]1O[C@]2(C=C[C@@H](O)[C@]3(CC[C@@](C)([C@H]4CC[C@](O)(CC)[C@H](C)O4)O3)O2)[C@H](C)C[C@@H]1C
1.78

Requested field: log10 MIC. Item: O=c1[nH]cc(F)c(=O)[nH]1
0.59

Requested field: log10 MIC. Item: CC[C@@H](C(=O)[C@@H](C)[C@@H](O)[C@H](C)[C@@H]1O[C@@H]([C@@H](CC)C(=O)O)CC[C@@H]1C)[C@H]1O[C@]2(C=C[C@@H](O)[C@]3(CC[C@@](C)([C@H]4CC[C@](O)(CC)[C@H](C)O4)O3)O2)[C@H](C)C[C@@H]1C
0.42

Cited source: ChEMBL document CHEMBL3414487
